# Tested on: HIV
# method: NCI in vitro anti-HIV screen (XTT soluble-formazan assay, protection of HIV-infected CEM cells)
# Format: cell-based
# test_context: read-out: EC50 (50% effective concentration, protection in infected cells); HIV-infected CEM cells, 6 days, XTT; approximate values; one value per run
# Description: The National Cancer Institute's procedure for testing for agents active against Human Immunodeficiency Virus (HIV) (Weislow, O. W. et al, "New soluble-formazan assay for HIV-1 cytopathic effects: application to high-flux screening of synthetic and natural products for AIDS-antiviral activity," J. Natl. Cancer Inst., 81, 577-586, 1989) is designed to detect agents acting at any stage of the virus reproductive cycle. The assay includes the killing of T4 lymphocytes by HIV. […]
measured_parameter: EC50 (µM)
A number alone suffices; assume µM.

Request: What EC50 value was documented for this molecule, CC(C)CCC[C@@H](C)[C@H]1CC[C@H]2[C@@H]3CC[C@H]4C[C@@H](CCC=C(c5cc(Cl)c(O)c(C(=O)O)c5)c5cc(Cl)c(O)c(C(=O)O)c5)CC[C@]4(C)[C@H]3CC[C@]12C [Formula IV] ?
Response: 6.7
